Experiment: AUC (area under the plasma concentration) after oral administration to mice
Settings: male, BALB/cA, mouse, plasma, po, 30 mg/kg
property name: AUC

These solved cases illustrate the format of a correct answer.
c1ccc2[nH]c(SCCCCCOc3ccncc3)nc2c1
5520 ng·h/mL
c1ccc2[nH]c(OCCCCCSc3nc4ccccc4[nH]3)nc2c1
2420 ng·h/mL
c1cnc(OCCCCCSc2nc3ccccc3[nH]2)nc1
680 ng·h/mL

Query block: Supply recorded AUC for c1ccc(OCCCCCSc2nc3ccccc3[nH]2)nc1 here.
Result block: 340 ng·h/mL

Query block: Consider the compound Cn1c(SCCCCCOc2ccccn2)nc2ccccc21 and give its recorded AUC.
Result block: 860 ng·h/mL

###

Test: AUC (area under the plasma concentration) after oral administration to mice
Conditions: male, BALB/cA, mouse, plasma, po, 30 mg/kg
property name: AUC (ng·h/mL)
Please give a number only; it is taken to be in ng·h/mL.

Query block: Please supply the value of reported AUC for the item c1ccc2[nH]c(SCCCCCCOc3ccncc3)nc2c1
Result block: 1210

Query block: Specify reported AUC for the compound shown: c1ccc(OCCCCSc2nc3ccccc3[nH]2)nc1
Result block: 240

Query block: Tell me AUC reported for c1ccc2[nH]c(SCCCCCOc3nccs3)nc2c1
Result block: 100

Query block: Tell us which AUC value is on record for COc1ccc2nc(SCCCCCOc3ccccn3)[nH]c2c1
Result block: 1220

###

System: mouse peritoneal macrophages
Assay: Suppression of foaming of macrophages: cholesterol ester yield in mouse peritoneal macrophages loaded with liposomes
Assay type: cell-based
Settings: Mus musculus, Peritoneal macrophage, 16 h; test compound 5 μM; cholesterol ester yield relative to control without test compound = 100%; smaller value = more potent suppression; read-out: CE yield (%)
Each entry below carries its recorded activity at 5 µM.
Return type: number; implicit unit %.

Solved entries:
c1ccc2[nH]c(SCCCCCCOc3ccncc3)nc2c1 [Compound 25]
2.8
COc1ccc2nc(SCCCCCOc3ccccn3)[nH]c2c1 [Compound 17]
14
CCC(=O)n1c(SCCCCCOc2ccccn2)nc2ccccc21 [Compound 24]
25

Query block: Answer briefly: activity at 5 µM recorded on mouse peritoneal macrophages for c1ccc(OCCCCCCCCSc2nc3ccccc3[nH]2)nc1 [Compound 10]
Result block: 12

Query block: Tell me its activity at 5 µM on mouse peritoneal macrophages: c1ccc2[nH]c(OCCCCCSc3nc4ccccc4[nH]3)nc2c1 [Compound 21]
Result block: 18

Query block: Write down the reported activity at 5 µM (system: mouse peritoneal macrophages) of c1ccc(OCCCCCCSc2nc3ccccc3[nH]2)nc1 [Compound 12]
Result block: 13

Query block: // output activity at 5 µM; input Cn1c(OCCCCCSc2nc3ccccc3[nH]2)nc2ccccc21 [Compound 9] ; system mouse peritoneal macrophages
Result block: 6.2

Query block: Give activity at 5 µM only, for Cn1c(SCCCCCOc2ccccn2)nc2ccccc21 [Compound 23] , using mouse peritoneal macrophages data.
Result block: 21

###

Test: AUC (area under the plasma concentration) after oral administration to mice
Conditions: male, BALB/cA, mouse, plasma, po, 30 mg/kg
property name: AUC (ng·h/mL)
Dear colleague, please return just the value in ng·h/mL, with no unit written.

Illustrative cases are given below, each with its answer.
c1ccc2[nH]c(SCCCCCNc3nc4ccccc4s3)nc2c1
230
c1ccc(OCCCCCCCSc2nc3ccccc3[nH]2)nc1
150
Cn1c(OCCCCCSc2nc3ccccc3[nH]2)nc2ccccc21
110
Clc1cc2nc(SCCCCCOc3ccccn3)[nH]c2cc1Cl
680
Cc1ccc2nc(SCCCCCOc3ccccn3)[nH]c2c1
1410

Query block: Answer with reported AUC of c1ccc2[nH]c(SCCOCCOCCNc3nc4ccccc4o3)nc2c1
Result block: 680

###

Test system: mouse peritoneal macrophages
Assay: Suppression of foaming of macrophages: cholesterol ester yield in mouse peritoneal macrophages loaded with liposomes
Format: cell-based
Conditions: Mus musculus, Peritoneal macrophage, 16 h; test compound 5 μM; cholesterol ester yield relative to control without test compound = 100%; smaller value = more potent suppression; read-out: CE yield (%)
yes means recorded activity at 5 µM is 10% or above; no means it is below 10%.

c1ccc(OCCCCCCCSc2nc3ccccc3[nH]2)nc1
yes
c1ccc2[nH]c(SCCOCCNc3nc4ccccc4o3)nc2c1
no
c1ccc2[nH]c(SCCCCCCNc3nc4ccccc4o3)nc2c1
yes

Query block: # bool: activity at 5 µM of Cc1ccc2nc(SCCCCCOc3ccccn3)[nH]c2c1 >= 10%
Result block: yes

Query block: Tell me whether activity at 5 µM is at least 10% here: CC(=O)Nc1ccc2nc(SCCCCCOc3ccccn3)[nH]c2c1
Result block: yes

Query block: Hello, I need to know if c1cnc(OCCCCCSc2nc3ccccc3[nH]2)nc1 has measured activity at 5 µM not below 10%. Thanks!
Result block: yes

Query block: Could you verify whether the entry c1ccc2[nH]c(SCCCCCOc3ccncc3)nc2c1 shows activity at 5 µM of no less than 10%?
Result block: no

Query block: Does Clc1cc2nc(SCCCCCOc3ccccn3)[nH]c2cc1Cl have a reported activity at 5 µM of at least 10%?
Result block: yes

Query block: // inclusive: activity at 5 µM at least 10%? input: c1ccc(OCCCCCSc2nc3ccccc3[nH]2)nc1
Result block: no

Query block: Threshold query (activity at 5 µM >= 10%) on C=C(C)n1c(OCCCCCSc2nc3ccccc3[nH]2)nc2ccccc21
Result block: yes

Query block: Is the recorded value of activity at 5 µM equal to or greater than 10% for this compound? c1ccc2[nH]c(SCCCCCNc3nc4ccccc4s3)nc2c1
Result block: no

###

Each entry below carries its recorded activity at 5 µM.
System: mouse peritoneal macrophages
Experiment: Suppression of foaming of macrophages: cholesterol ester yield in mouse peritoneal macrophages loaded with liposomes
Type: cell-based
Conditions: Mus musculus, Peritoneal macrophage, 16 h; test compound 5 μM; cholesterol ester yield relative to control without test compound = 100%; smaller value = more potent suppression; read-out: CE yield (%)
Use % as the unit, but write only the number.

c1ccc2[nH]c(SCCOCCOCCNc3nc4ccccc4o3)nc2c1
12

Query block: Fill in activity at 5 µM for c1ccc2[nH]c(SCCCCCOc3nccs3)nc2c1 tested with mouse peritoneal macrophages.
Result block: 11

Query block: Report its activity at 5 µM with mouse peritoneal macrophages as the test system: c1ccc(OCCCCSc2nc3ccccc3[nH]2)nc1
Result block: 18

Reference source: patent US6787561B1
